- TARGET ENTITY: recombinant CYP-17 (Homo sapiens, UniProt P05093)
- Sequence (P05093 whole entry, species assumed): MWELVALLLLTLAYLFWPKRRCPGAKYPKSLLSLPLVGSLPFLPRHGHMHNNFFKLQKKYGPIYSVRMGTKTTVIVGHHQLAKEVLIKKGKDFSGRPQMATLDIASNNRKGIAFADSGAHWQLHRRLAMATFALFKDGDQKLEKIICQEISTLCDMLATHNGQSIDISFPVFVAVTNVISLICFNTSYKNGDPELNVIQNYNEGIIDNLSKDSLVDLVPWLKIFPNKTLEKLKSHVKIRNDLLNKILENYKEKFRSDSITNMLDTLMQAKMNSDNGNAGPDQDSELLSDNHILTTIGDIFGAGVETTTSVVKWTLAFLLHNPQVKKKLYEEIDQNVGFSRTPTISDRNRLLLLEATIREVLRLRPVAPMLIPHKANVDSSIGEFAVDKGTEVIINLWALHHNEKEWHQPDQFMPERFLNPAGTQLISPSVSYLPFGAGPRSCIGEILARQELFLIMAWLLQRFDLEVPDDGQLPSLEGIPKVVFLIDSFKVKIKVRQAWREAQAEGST
- MEASUREMENT PROTOCOL: Cyp17 assay: AD293 cells over-expressing recombinant CYP-17, 3H-acetic acid release from [21-3H] 17α-hydroxyl-Pregnenolone
- TEST CONDITIONS: AD293 cells, eight concentrations 10 μM to 4.5 nM
pIC50: −log10 of the molar value.
Label scheme for pIC50: lower than 7 is No, 7 and above is Yes.

# count of solved cases: 4
Incoming: API: above_or_equal(metric=pIC50, cutoff=7) for item O=S(=O)(CCC(F)(F)F)N1CCN(c2ccc(OC[C@@H]3CO[C@@](Cn4ccnc4)(c4ccc(Cl)cc4Cl)O3)cc2)CC1
Outgoing: No

Incoming: Lookup COC(=O)[C@@H](NC(=O)N1CCN(c2ccc(OC[C@@H]3CO[C@@](Cn4ccnc4)(c4ccc(Cl)cc4Cl)O3)cc2)CC1)C(C)C
Outgoing: Yes

Incoming: Next entry: CCOC(=O)CNC(=O)N1CCN(c2ccc(OC[C@@H]3CO[C@@](Cn4ccnc4)(c4ccc(Cl)cc4Cl)O3)cc2)CC1
Outgoing: Yes

Incoming: Next record, please: Clc1ccc([C@]2(Cn3ccnc3)OC[C@@H](COc3ccc(N4CCN(C5=NCCO5)CC4)cc3)O2)c(Cl)c1 (racemic)
Outgoing: Yes

Query compound follows.
Incoming: State whether the measured pIC50 reaches 7, counting equality as reaching it, for CCOC(=O)CNC(=O)N1CCN(c2ccc(OC[C@H]3CO[C@](Cn4ccnc4)(c4ccc(Cl)cc4Cl)O3)cc2)CC1
Outgoing: No
